- Target or system: human B1R (Homo sapiens)
- Construct: expressed in transfected cells; host or cells: CHO K1 cells (Chinese Hamster Ovary), stably transfected
- Sequence (P46663 1-353): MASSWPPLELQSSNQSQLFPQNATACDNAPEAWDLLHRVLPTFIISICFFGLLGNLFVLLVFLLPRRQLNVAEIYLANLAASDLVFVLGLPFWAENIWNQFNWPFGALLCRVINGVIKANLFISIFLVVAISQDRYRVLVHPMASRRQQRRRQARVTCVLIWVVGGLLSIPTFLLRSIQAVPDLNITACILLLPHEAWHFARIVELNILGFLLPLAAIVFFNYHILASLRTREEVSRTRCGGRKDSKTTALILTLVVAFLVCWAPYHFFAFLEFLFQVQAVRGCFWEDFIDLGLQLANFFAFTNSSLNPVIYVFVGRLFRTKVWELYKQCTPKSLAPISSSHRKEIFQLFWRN
- Measurement notes: Functional assay at bradykinin receptor 1 (B1R): Ca2+ fluorescence (Fluo-4) in FLIPR/Novostar, antagonist mode
- Assay type: cell-based
- Run parameters: test substance 10 µM; CHO K1 cells stably transfected with human B1R gene (hB1R-Zellen); agonist Lys-Des-Arg9-Bradykinin at EC80; % inhibition relative to maximal achievable inhibition; read-out: % Inhibierung (human B1R) bei 10 µM
Reported inhibition at 10 µM values for the following compounds.
# output: bare number, implied unit %

Consider the following illustrative entries.
COc1cc(C)c(S(=O)(=O)Cc2noc(C(=O)N3CCC4(CCC(Oc5ccncc5)CC4)CC3)n2)c(C)c1 [SC-09]
99
Cc1cc(S(=O)(=O)Cc2noc(CC(=O)NC3CCC(NC4CC4)CC3(C)C)n2)c(C)cc1Cl (stereo not shown) [CC-57]
100
Cc1cc(S(=O)(=O)Cc2noc(CC(=O)NC3CCC(c4ccncc4)CC3(C)C)n2)c(C)cc1Cl (stereo not shown) [CC-80]
99

Give recorded inhibition at 10 µM with human B1R (Homo sapiens) for the following compound: Cc1cccc(Cl)c1S(=O)(=O)Cc1noc(CC(=O)NC2CCC(NC3CC3)CC2(C)C)n1 (stereo not shown) [CC-95] 100

And COc1cc(C)c(S(=O)(=O)Cc2noc(CC(=O)N(C)C3CCC4(CCN(C)CC4)CC3(C)C)n2)c(C)c1 (stereo not shown) [SC-33] ? 100

And COc1cc(C)c(S(=O)(=O)Cc2noc(CC(=O)NC3CCN(C4CCOCC4)CC3(C)C)n2)c(C)c1 (stereo not shown) [SC-39] ? 100

And COc1cc(C)c(S(=O)(=O)Cc2c(C)nn(CC(=O)NC3CCC(c4ccncc4)CC3(C)C)c2C)c(C)c1 (stereo not shown) [CC-172] ? 100

And Cc1cccc(Cl)c1S(=O)(=O)Cc1noc(CC(=O)NC2CCC(N3CCCC3)CC2(C)C)n1 (stereo not shown) [CC-91] ? 97

And Cc1cc(S(=O)(=O)Cc2noc(CC(=O)NC3CCN(C)CC3(C)C)n2)c(C)cc1Cl (stereo not shown) [CC-105] ? 88

And Cc1cc(S(=O)(=O)Cc2noc(C(=O)N3CCC4(CC3)CCN(c3ccncc3)CC4)n2)c(C)cc1Cl [CC-146] ? 100

And COc1cc(C)c(S(=O)(=O)Cc2nnc(CC(=O)NC3CCC(N4CCN(C)CC4)CC3(C)C)o2)c(C)c1 (stereo not shown) [CC-86] ? 100

And COc1cc(C)c(S(=O)(=O)Cc2noc(CC(=O)NC3CCC(c4ccncc4)CC3)n2)c(C)c1 (stereo not shown) [SC-37] ? 100

And COc1cc(C)c(S(=O)(=O)Cc2cc(C)n(CC(=O)NC3CCN(C(C)=O)CC3(C)C)n2)c(C)c1 (stereo not shown) [CC-159] ? 50

And COc1cc(C)c(S(=O)(=O)Cc2noc(C(=O)N(C)C3CCN(c4ccnc(N(C)C)c4)CC3)n2)c(C)c1 [SC-69] ? 100

And COc1cc(C)c(S(=O)(=O)Cc2nnc(CC(=O)NC3CCC(N4CCCC4)CC3)o2)c(C)c1 (stereo not shown) [CC-40] ? 100

And COc1cc(C)c(S(=O)(=O)Cc2noc(CC(=O)NC3CCC(c4ccncc4)CC3(C)C)n2)c(C)c1 (stereo not shown) [SC-32] ? 98
